# measured_on: Adrenergic β3 (Homo sapiens, UniProt P13945)
# Sequence (P13945 whole entry): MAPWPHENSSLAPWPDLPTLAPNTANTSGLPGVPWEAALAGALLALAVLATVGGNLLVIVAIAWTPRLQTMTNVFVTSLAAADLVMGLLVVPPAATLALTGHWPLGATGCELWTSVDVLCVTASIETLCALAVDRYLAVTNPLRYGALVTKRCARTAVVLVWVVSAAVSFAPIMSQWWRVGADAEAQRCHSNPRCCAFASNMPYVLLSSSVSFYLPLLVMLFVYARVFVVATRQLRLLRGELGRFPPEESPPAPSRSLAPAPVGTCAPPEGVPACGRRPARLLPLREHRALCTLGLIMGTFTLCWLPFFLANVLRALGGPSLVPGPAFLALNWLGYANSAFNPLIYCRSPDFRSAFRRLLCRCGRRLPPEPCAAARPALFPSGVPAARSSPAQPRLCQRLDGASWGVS
quantity_name: pKi
Value format note: pKi is -log10 of concentration (mol/L); just state the number.

QUERY: Form: Entry = CCCc1c(SCCCOc2ccc(C(C)=O)c(OCCCC(=O)O)c2CCC)ccc(C(C)=O)c1O [Compound 1] | System = Adrenergic β3 (Homo sapiens, UniProt P13945) | pKi = ____
RESULT: 5.46

---

# measured_on: PDE5 (Homo sapiens)
# experimental_details: Biochemical assay PDE5
# assay_setup: PDE5, Hu
quantity_name: pIC50
Value format note: pIC50 is -log10 of concentration (mol/L); just state the number.

QUERY: Sample `CCCc1c(SCCCOc2ccc(C(C)=O)c(OCCCC(=O)O)c2CCC)ccc(C(C)=O)c1O` — what was its pIC50?
RESULT: 4.90
